Source listed as PubChem BioAssay (NCATS).

Tested on: ATS189
Test: qHTS profiling for inhibitors of Plasmodium falciparum proliferation (AID 504749); further: nearly all actives have a fitted effect of over 60% in size
Details: P. falciparum in erythrocytes, SYBR Green DNA, 72 h; series mostly up to 28.7 µM
Records with an inconclusive call do not appear. Activity calls are given as the source filed them. The call rests on the fitted dose curve; in most records, active means well fitted inhibition curve with a large enough effect; inconclusive means small, poorly fitted or top-dose-only effect; inactive means flat fitted curve, though single readings scatter.
Classes used: label 1 for active, label 0 for inactive

[
  {
    "compound": "O=C(CC1NCCC[C@H]1O)Cn1cnc2cc(Br)c(Cl)cc2c1=O (stereo not given in full)",
    "test-system": "ATS189",
    "assigned-class": "label 1"
  },
  {
    "compound": "CC(C)(O)c1ccccc1CC[C@H](SCC1(CC(=O)O)CC1)c1cccc(/C=C/c2ccc3ccc(Cl)cc3n2)c1",
    "test-system": "ATS189",
    "assigned-class": "label 0"
  },
  {
    "compound": "CN1CCN(CCC=C2c3ccccc3Sc3ccc(S(=O)(=O)N(C)C)cc32)CC1",
    "test-system": "ATS189",
    "assigned-class": "label 1"
  },
  {
    "compound": "C[C@@H](C(=O)O)c1ccc(-c2ccccc2)c(F)c1",
    "test-system": "ATS189",
    "assigned-class": "label 0"
  },
  {
    "compound": "CC(C)C[C@@H](NC(=O)[C@H](Cc1ccccc1)NC(=O)c1cnccn1)B(O)O",
    "test-system": "ATS189",
    "assigned-class": "label 1"
  }
]
